Where do these numbers come from? They come from patent US11479556B1.

# key: entry, value: DC50
target: Aiolos (Homo sapiens, UniProt Q96SW2+Q9UKT9); construct: Frozen human peripheral blood mononuclear cells (PBMCs) were thawed and treated with DMSO or compound for 24 hours; endogenous in cells; host or cells: human PBMCs (T cells gated CD3+CD20-); test: Aiolos degradation flow cytometry assay in human PBMCs (T cells); assay type: cell-based; details: 24 hours, T cells (CD3+CD20-), read-out: Aiolos T Cell DC50
Sequence (Q9UKT9 whole entry): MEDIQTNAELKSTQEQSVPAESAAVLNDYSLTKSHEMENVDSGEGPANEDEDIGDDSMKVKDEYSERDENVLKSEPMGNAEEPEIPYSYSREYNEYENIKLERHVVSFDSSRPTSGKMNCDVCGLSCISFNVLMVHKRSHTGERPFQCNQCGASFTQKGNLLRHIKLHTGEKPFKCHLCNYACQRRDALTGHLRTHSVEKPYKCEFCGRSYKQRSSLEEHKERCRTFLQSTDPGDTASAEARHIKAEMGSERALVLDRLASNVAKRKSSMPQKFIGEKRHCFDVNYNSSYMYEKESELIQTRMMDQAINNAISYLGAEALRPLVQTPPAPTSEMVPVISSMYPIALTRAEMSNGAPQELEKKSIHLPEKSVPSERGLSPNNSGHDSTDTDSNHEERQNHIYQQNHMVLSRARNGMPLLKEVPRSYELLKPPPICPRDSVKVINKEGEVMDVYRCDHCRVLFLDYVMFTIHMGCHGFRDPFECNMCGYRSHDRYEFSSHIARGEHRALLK
Sequence (Q96SW2 whole entry): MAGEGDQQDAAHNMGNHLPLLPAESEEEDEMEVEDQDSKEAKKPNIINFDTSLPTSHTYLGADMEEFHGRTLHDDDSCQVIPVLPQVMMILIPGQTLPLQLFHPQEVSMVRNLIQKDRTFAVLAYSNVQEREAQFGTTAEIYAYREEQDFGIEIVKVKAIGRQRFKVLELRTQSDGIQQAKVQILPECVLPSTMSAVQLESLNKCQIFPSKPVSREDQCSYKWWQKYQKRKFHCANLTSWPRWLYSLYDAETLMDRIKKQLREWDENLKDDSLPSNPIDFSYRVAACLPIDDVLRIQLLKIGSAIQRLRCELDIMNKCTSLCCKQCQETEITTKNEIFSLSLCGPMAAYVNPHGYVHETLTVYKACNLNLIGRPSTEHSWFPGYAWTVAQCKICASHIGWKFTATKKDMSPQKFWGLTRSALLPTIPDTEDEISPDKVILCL
Sequence (Q16531 whole entry partner): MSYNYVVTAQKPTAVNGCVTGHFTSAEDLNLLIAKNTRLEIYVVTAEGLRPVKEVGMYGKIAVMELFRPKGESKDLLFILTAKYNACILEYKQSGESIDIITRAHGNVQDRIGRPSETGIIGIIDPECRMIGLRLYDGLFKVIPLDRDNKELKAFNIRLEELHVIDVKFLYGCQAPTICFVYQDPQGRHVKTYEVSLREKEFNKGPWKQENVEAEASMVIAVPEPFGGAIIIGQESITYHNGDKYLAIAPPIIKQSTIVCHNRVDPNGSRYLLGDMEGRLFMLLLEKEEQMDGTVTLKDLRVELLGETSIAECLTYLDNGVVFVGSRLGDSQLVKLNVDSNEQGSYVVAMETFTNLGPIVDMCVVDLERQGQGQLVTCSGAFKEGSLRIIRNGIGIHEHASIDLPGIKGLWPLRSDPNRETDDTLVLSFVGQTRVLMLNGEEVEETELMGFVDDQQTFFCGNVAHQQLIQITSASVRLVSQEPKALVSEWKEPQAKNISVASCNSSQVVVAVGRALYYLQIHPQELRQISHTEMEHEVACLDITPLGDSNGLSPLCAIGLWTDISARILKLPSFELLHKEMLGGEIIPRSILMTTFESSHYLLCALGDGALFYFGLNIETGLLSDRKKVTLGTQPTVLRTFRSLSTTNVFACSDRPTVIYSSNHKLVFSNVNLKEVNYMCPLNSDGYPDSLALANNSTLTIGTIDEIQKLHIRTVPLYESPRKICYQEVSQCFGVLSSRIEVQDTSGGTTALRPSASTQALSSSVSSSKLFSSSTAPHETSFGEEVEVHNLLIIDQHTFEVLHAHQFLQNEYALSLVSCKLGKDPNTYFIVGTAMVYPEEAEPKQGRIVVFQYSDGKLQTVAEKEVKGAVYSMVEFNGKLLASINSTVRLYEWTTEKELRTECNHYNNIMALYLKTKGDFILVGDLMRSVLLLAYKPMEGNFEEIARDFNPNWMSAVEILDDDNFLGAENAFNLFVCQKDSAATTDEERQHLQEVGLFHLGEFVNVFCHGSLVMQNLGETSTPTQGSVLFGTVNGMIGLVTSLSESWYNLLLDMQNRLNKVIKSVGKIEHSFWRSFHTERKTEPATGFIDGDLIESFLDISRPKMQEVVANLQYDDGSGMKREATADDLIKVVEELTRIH

The examples below pair each entry with its known result.
CN1CCN([C@@H]2CCCN(c3cnc(C(N)=O)c(Nc4ccc(C5CCN(CCCNc6cccc7c6C(=O)N(C6CCC(=O)NC6=O)C7=O)CC5)cc4)n3)C2)C1=O (stereo partly shown) [Compound 155] : 0.01 to 1 µM
CN1CCN([C@@H]2CCCN(c3cnc(C(N)=O)c(Nc4ccc5c(c4)CCN(CC4CCN(c6ccc7c(c6)C(=O)N(C6CCC(=O)NC6=O)C7=O)CC4)C5)n3)C2)C1=O (stereo partly shown) [Compound 31] : 0.01 to 1 µM
CN1CCN([C@@H]2CCCN(c3cnc(C(N)=O)c(Nc4ccc(N5CCN(C(=O)CCOCCCc6ccc7c(c6)C(=O)N(C6CCC(=O)NC6=O)C7)CC5)cc4)n3)C2)C1=O (stereo partly shown) [Compound 61] : > 1 µM
CN1CCN([C@@H]2CCCN(c3cnc(C(N)=O)c(Nc4ccc(C5CCN(CC6CCN(c7ccc8c(c7)n(C)c(=O)n8C7CCC(=O)NC7=O)CC6)CC5)cc4)n3)C2)C1=O (stereo partly shown) [Compound 156] : < 0.01 µM
CN1CCN([C@@H]2CCCN(c3cnc(C(N)=O)c(Nc4ccc(N5CCN(C[C@@H]6[C@H]7CN(c8ccc9c(c8)C(=O)N(C8CCC(=O)NC8=O)C9=O)C[C@@H]67)CC5)cc4)n3)C2)C1=O (stereo partly shown) [Compound 38] : 0.01 to 1 µM

[ask] Any idea what its DC50 is? The compound is CN1CCN([C@H]2CCCN(c3cnc(C(N)=O)c(Nc4ccc5c(c4)CCN(CC4CN(c6ccc7c(c6)C(=O)N(C6CCC(=O)NC6=O)C7=O)C4)C5)n3)C2)C1=O (stereo partly shown) [Compound 92]
[reply] < 0.01 µM

[ask] How about CN1CCN([C@@H]2CCCN(c3cnc(C(N)=O)c(Nc4ccc(C5CCN(CC6CCN(c7ccc8c(c7)C(=O)N(C7CCC(=O)NC7=O)C8=O)CC6)CC5)cc4)n3)C2)C1=O (stereo partly shown) [Compound 51] ?
[reply] 0.01 to 1 µM

[ask] Try the compound CN1CCN([C@@H]2CCCN(c3cnc(C(N)=O)c(Nc4ccc(N5CCC6(CCCN(c7ccc8c(c7)C(=O)N(C7CCC(=O)NC7=O)C8=O)C6)CC5)cc4)n3)C2)C1=O (stereo partly shown) [Compound 29]
[reply] > 1 µM

[ask] // query: CN1CCN([C@@H]2CCCN(c3cnc(C(N)=O)c(Nc4ccc(C5CN(C6CCN(c7ccc8c(c7)C(=O)N(C7CCC(=O)NC7=O)C8=O)CC6)C5)cc4)n3)C2)C1=O (stereo partly shown) [Compound 37]
[reply] 0.01 to 1 µM

[ask] Same read-out for CN1CCN([C@@H]2CCCN(c3cnc(C(N)=O)c(Nc4ccc(C5(C)CCN(C6CN(Cc7ccc8c(c7)C(=O)N(C7CCC(=O)NC7=O)C8=O)C6)CC5)cc4)n3)C2)C1=O (stereo partly shown) [Compound 75] ?
[reply] > 1 µM

###

biological target: BTK (Homo sapiens); construct: endogenous in cells; host or cells: TMD8 cells; test: Cellular BTK HTRF assay (BTK degradation) in TMD8 cells; format: cell-based; conditions: four hours incubation, Total-BTK HTRF relative to DMSO-treated cells
quantityKind: DC50

As a guide, the following entries are already answered.
Cc1ncsc1-c1ccc([C@H](C)NC(=O)[C@@H]2C[C@@H](O)CN2C(=O)[C@@H](NC(=O)CCCCCC(=O)N2CCC(c3ccc(Nc4nc(N5CCC[C@@H](N6CCN(C)C6=O)C5)cnc4C(N)=O)cc3)CC2)C(C)(C)C)cc1 [Compound 189] : > 15 nM
Cn1c(-c2ccc(N3CC(CN4CCC(c5ccc(Nc6nc(N7CCC[C@H](N8CCCC8=O)C7)cnc6C(N)=O)cc5)CC4)C3)cc2)nn(C2CCC(=O)NC2=O)c1=O (some centres unmarked) [Compound 135] : < 5 nM
CN1CCN([C@@H]2CCCN(c3cnc(C(N)=O)c(Nc4ccc5c(c4)CCN(C4CN(c6ccc7c(c6)C(=O)N(C6CCC(=O)NC6=O)C7=O)C4)C5)n3)C2)C1=O (some centres unmarked) [Compound 30] : 5 to 15 nM

[ask] What value of DC50 has been reported for the following molecule? CN1CCN([C@H]2CCCN(c3cnc(C(N)=O)c(Nc4cnn(C5CCN(C6CCN(c7ccc8c(c7)C(=O)N(C7CCC(=O)NC7=O)C8=O)CC6)CC5)c4)n3)C2)C1=O (some centres unmarked) [Compound 77]
[reply] < 5 nM

[ask] Next molecule up: CN1CCN([C@@H]2CCCN(c3cnc(C(N)=O)c(Nc4ccc(N5CCN(C[C@@H]6CCN(c7ccc8c(c7)C(=O)N(C7CCC(=O)NC7=O)C8=O)C6)CC5)cc4)n3)C2)C1=O (some centres unmarked) [Compound 59]
[reply] < 5 nM

###

target: BTK (Homo sapiens); construct: endogenous in cells; host or cells: TMD8 cells; assay: Cellular BTK HTRF assay (BTK degradation) in TMD8 cells; format: cell-based; settings: four hours incubation, Total-BTK HTRF relative to DMSO-treated cells
quantityKind: DC50

[ask] # input compound: CN1CCN([C@@H]2CCCN(c3cnc(C(N)=O)c(Nc4ccc(C5(C)CCN(C[C@H]6CCN(c7ccc8c(c7)C(=O)N(C7CCC(=O)NC7=O)C8=O)C6)CC5)cc4)n3)C2)C1=O (some centres unmarked) ; wanted: its DC50
[reply] < 5 nM

[ask] Then this compound: CN1CCN([C@H]2CCCN(c3cnc(C(N)=O)c(Nc4ccc(N5CCN(CCCCc6cccc7c6CN(C6CCC(=O)NC6=O)C7=O)CC5)nc4)n3)C2)C1=O (some centres unmarked)
[reply] < 5 nM

[ask] Then what about the compound NC(=O)c1ncc(N2CCCCC2)nc1Nc1ccc(C2CCN(CC3CCN(c4ccc(OC5CCC(=O)NC5=O)cn4)CC3)CC2)cc1 (centres unmarked) ?
[reply] 5 to 15 nM

[ask] Can you handle CN1CCN([C@@H]2CCCN(c3cnc(C(N)=O)c(Nc4ccc(C5(C)CCN(C6CN(Cc7ccc8c(c7)C(=O)N(C7CCC(=O)NC7=O)C8=O)C6)CC5)cc4)n3)C2)C1=O (some centres unmarked) next?
[reply] < 5 nM

[ask] What about this compound? CN1CCN([C@H]2CCCN(c3cnc(C(N)=O)c(Nc4ccc(N5CCC6(CC5)CN(c5ccc7c(c5)C(=O)N(N5CCC(=O)NC5=O)C7=O)C6)cc4)n3)C2)C1=O
[reply] < 5 nM

[ask] CN1CCN([C@H]2CCCN(c3cnc(C(N)=O)c(Nc4ccc(N5CCN(CC#Cc6ccc7c(c6)C(=O)N(C6CCC(=O)NC6=O)C7)CC5)cc4)n3)C2)C1=O (some centres unmarked) , same question.
[reply] < 5 nM

[ask] Do the same for NC(=O)c1ncc(N2CCC(F)(F)C(CO)C2)nc1Nc1ccc(C2CCN(C[C@H]3CCN(c4ccc5c(c4)C(=O)N(C4CCC(=O)NC4=O)C5=O)C3)CC2)cc1 (some centres unmarked) please
[reply] < 5 nM

[ask] Okay, and CN1CCN([C@@H]2CCCN(c3cnc(C(N)=O)c(Nc4ccc(C5CCN(CC6CN(c7ccc8c(=O)n(C9CCC(=O)NC9=O)ccc8c7)C6)CC5)cc4)n3)C2)C1=O (some centres unmarked) [Compound 116] ?
[reply] < 5 nM

[ask] Now the same for CN1CCN([C@@H]2CCCN(c3cnc(C(N)=O)c(Nc4ccc(C(=O)NCCOCCc5cccc6c5CN(C5CCC(=O)NC5=O)C6=O)cc4)n3)C2)C1=O (some centres unmarked)
[reply] > 15 nM

[ask] Would you kindly repeat that for CN1CCN([C@@H]2CCCN(c3cnc(C(N)=O)c(Nc4ccc(N5CCCC6(C5)CN(c5cccc7c5C(=O)N(C5CCC(=O)NC5=O)C7=O)C6)cc4)n3)C2)C1=O (some centres unmarked) ?
[reply] > 15 nM

###

molecular target: BTK (Homo sapiens, UniProt Q06187); construct: endogenous in cells; host or cells: TMD8 cells; test: Cellular BTK HTRF assay (BTK degradation) in TMD8 cells; type: cell-based; conditions: four hours incubation, Total-BTK HTRF relative to DMSO-treated cells
Sequence (Q06187 whole entry): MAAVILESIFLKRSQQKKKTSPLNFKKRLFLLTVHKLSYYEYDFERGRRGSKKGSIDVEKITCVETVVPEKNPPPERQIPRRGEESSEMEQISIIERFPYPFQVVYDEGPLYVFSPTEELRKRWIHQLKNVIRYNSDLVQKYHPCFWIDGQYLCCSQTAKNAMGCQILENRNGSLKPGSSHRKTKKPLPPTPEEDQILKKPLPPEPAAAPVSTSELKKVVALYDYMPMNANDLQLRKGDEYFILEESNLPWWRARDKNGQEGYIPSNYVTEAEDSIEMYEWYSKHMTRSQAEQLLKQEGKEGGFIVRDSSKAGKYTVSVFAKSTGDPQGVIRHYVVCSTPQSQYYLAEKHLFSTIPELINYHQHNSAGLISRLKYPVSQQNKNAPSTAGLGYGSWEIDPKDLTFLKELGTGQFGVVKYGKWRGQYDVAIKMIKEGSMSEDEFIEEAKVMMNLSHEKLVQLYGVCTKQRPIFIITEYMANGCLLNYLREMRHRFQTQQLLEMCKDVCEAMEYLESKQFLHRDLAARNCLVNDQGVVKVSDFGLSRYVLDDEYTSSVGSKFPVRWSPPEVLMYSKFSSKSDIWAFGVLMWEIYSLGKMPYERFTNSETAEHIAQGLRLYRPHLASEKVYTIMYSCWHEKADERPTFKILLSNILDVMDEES
The molecules listed here are annotated with their DC50.

CN1CCN([C@@H]2CCCN(c3cnc(C(N)=O)c(Nc4ccc(C5CN(C[C@H]6CCN(c7ccc8c(c7)C(=O)N(C7CCC(=O)NC7=O)C8=O)C6)C5)cc4)n3)C2)C1=O (stereo partly drawn) : < 5 nM

[ask] # value lookup — system BTK (Homo sapiens, UniProt Q06187), readout DC50, item NC(=O)c1ncc(N2CCCCC2)nc1Nc1ccc(N2CCN(C(=O)CCOCCCc3cccc4c3CN(C3CCC(=O)NC3=O)C4=O)CC2)cc1 (stereo not drawn)
[reply] > 15 nM

[ask] // repeat for CN1CCN([C@@H]2CCCN(c3cnc(C(N)=O)c(Nc4ccc(N5CCC6(CC5)CN(Cc5ccc7c(c5)C(=O)N(C5CCC(=O)NC5=O)C7=O)C6)cc4)n3)C2)C1=O (stereo partly drawn) and report
[reply] < 5 nM
